Test system: 2Sp-muMax20 (muMax20 with two 2,6-bis(methyl)pyridine Cys staples)
Experiment: PBM 8-mer E-score (E-score (rank enrichment, -0.5 to 0.5)); higher = stronger preferential binding
The full ranking holds about 33,000 sequences; the median of “E-score (rank enrichment, -0.5 to 0.5)” is about -0.0043, and the highest 2% start at about 0.24. The sample as a whole holds a higher share of the highest values than the screen did.
Observation type: PBM 8-mer E-score
# output: bare number, no unit

Answered cases to consult:
CTCCATAA    0.0393
CATAAATA    0.33
AATAAAGG    0.0234
ACCTCTGC    -0.0962
AATCAACA    0.262
CTGGCAAA    -0.0382
ACAGGCCC    -0.0606
ATAAAGCG    0.0648

Please report PBM 8-mer E-score for the following sequence: TAATAAAA
0.231

Write down PBM 8-mer E-score measured for item ACACTTCG
-0.0252

Let me know recorded PBM 8-mer E-score for ATAAGTTA , thanks.
0.236

Determine from records and report PBM 8-mer E-score for AAGGCCTT
0.293

Note down PBM 8-mer E-score recorded for GTTAACTA
0.258

Entry AGGTTTAC needs its PBM 8-mer E-score filled in; supply it.
-0.222

Answer with reported PBM 8-mer E-score of ATCACGCC
0.192

Using known records, supply PBM 8-mer E-score for GGGGAACA
0.124

====

Tested on: 2Sp-muMax20 (muMax20 with two 2,6-bis(methyl)pyridine Cys staples)
Test: PBM 8-mer E-score (E-score (rank enrichment, -0.5 to 0.5)); higher = stronger preferential binding
Whole data set: some 33,000 sequences, median “E-score (rank enrichment, -0.5 to 0.5)” near -0.0043, cut for the highest 2% near 0.24. The entries come from a sample that favours the highest values as a whole.
Observation type: PBM 8-mer E-score
Could you keep your reply to the number by itself?

// solved cases for PBM 8-mer E-score follow
AGGGCGAG    0.00325
ACATAGAC    0.115
TATATAAA    0.275
TACTGCTA    0.126
CTACACTA    0.111
CTCGGGTA    -0.193

In one line, give reported PBM 8-mer E-score of the entry CACATGTA .
0.312

====

Reported PBM 8-mer E-score by item:
Test system: 2Sp-muMax20 (muMax20 with two 2,6-bis(methyl)pyridine Cys staples)
Test: PBM 8-mer E-score (E-score (rank enrichment, -0.5 to 0.5)); higher = stronger preferential binding
The full ranking holds about 33,000 sequences; the median of “E-score (rank enrichment, -0.5 to 0.5)” is about -0.0043, and the highest 2% start at about 0.24. What follows is part of a selection rich in the highest values, with near analogues and random picks from the rest.

Sample records with PBM 8-mer E-score:
CAATAAAA    0.294
TCATGCAA    0.219
ACTCTAGC    -0.0888

# return recorded PBM 8-mer E-score for entry ACATGCAT
0.333

Identify PBM 8-mer E-score associated with the sequence ACTGAACT
0.049

Determine from records and report PBM 8-mer E-score for ATGGCGTC
-0.112

Give the reported PBM 8-mer E-score for this sequence. AAGGTGAT
0.157

Return reported PBM 8-mer E-score. Input sequence: CGCCCCAC
0.303

Name the recorded PBM 8-mer E-score of the item TGCCCAAA in your answer.
-0.0856

Consider the sequence AAGGCGAG and give its recorded PBM 8-mer E-score.
-0.114

Note down PBM 8-mer E-score recorded for GCATGCAC
0.216

Query PBM 8-mer E-score for CAATAATG
0.0692

====

Test system: 2Sp-muMax20 (muMax20 with two 2,6-bis(methyl)pyridine Cys staples)
Experiment: PBM 8-mer E-score (E-score (rank enrichment, -0.5 to 0.5)); higher = stronger preferential binding
Whole data set: some 33,000 sequences, median “E-score (rank enrichment, -0.5 to 0.5)” near -0.0043, cut for the highest 2% near 0.24. For the sample, the highest values were picked, then their nearest neighbours and some sequences at random.
Quick reference: PBM 8-mer E-score of the listed items.
Give a plain numeric answer without units written out.

Annotate the sequence AAGCCAGT with its measured PBM 8-mer E-score.
-0.0999

Name the recorded PBM 8-mer E-score of the sequence listed here: CTGTGATA
-0.0212

====

System: 2Sp-muMax20 (muMax20 with two 2,6-bis(methyl)pyridine Cys staples)
Test: PBM 8-mer E-score (E-score (rank enrichment, -0.5 to 0.5)); higher = stronger preferential binding
In all, about 33,000 sequences were measured (“E-score (rank enrichment, -0.5 to 0.5)”: median about -0.0043, highest 2% from about 0.24 on). The sample as a whole holds a higher share of the highest values than the screen did.
Records here are stratified by PBM 8-mer E-score; strata: low band (below 0.1), middle band (0.1 to below 0.2), high band (0.2 or more)

Use the examples below as a reference point.
AGCTGACT    low band
CTAGTAAA    middle band
ACGTATAA    middle band

Exam item: assign AACTATAG to the correct category.
high band

Which class does AACTATTG fall in?
high band

Hi, small favor: classify ATCATGAT by its PBM 8-mer E-score when you get a moment.
high band

In plain terms, what class is AACTATAC ?
middle band

Category of ATCATGAA :
middle band

Place this sequence in its band: ATATGAAA
high band

Note: place this sequence into its band. Item: GATCGGTA
low band

Note: place this sequence into its band. Item: CTCATGAG
high band

Into which category would you place CATGTTAA ?
middle band

GET /class?item= CACTATAG
high band

====

Tested on: 2Sp-muMax20 (muMax20 with two 2,6-bis(methyl)pyridine Cys staples)
Assay: PBM 8-mer E-score (E-score (rank enrichment, -0.5 to 0.5)); higher = stronger preferential binding
The full ranking holds about 33,000 sequences; the median of “E-score (rank enrichment, -0.5 to 0.5)” is about -0.0043, and the highest 2% start at about 0.24. Only a selection was taken, and the highest values are over-represented in it overall.
// label 0 strictly below 0.2 in PBM 8-mer E-score; label 1 otherwise

Solved entries (count: 10):
ATAATCAA    label 0
GGAGGGGA    label 1
ATAATCAG    label 1
CTAATCAG    label 0
ACGTGGAA    label 0
CACACTAA    label 0
AATCTATC    label 0
ACGTGGCT    label 1
CGAGGGGA    label 0
ACCTCGGA    label 0

Determine whether this sequence has PBM 8-mer E-score no lower than 0.2: ACGTGCCG
label 0

Exam item: decide whether the reported PBM 8-mer E-score for ATAATCTG is at least 0.2.
label 0

Does ACGTGGCA have a reported PBM 8-mer E-score of at least 0.2?
label 1

Does AGGTATCG have a reported PBM 8-mer E-score of at least 0.2?
label 0

Check this sequence for PBM 8-mer E-score at or above 0.2: ACGTGCCT
label 1

Does PBM 8-mer E-score meet or surpass 0.2 for AGTCACGA ?
label 0

Hi, just wondering whether GTAGGGGA shows PBM 8-mer E-score of 0.2 or higher.
label 1

Can ATAATCAT be said to have PBM 8-mer E-score at or above 0.2?
label 1

Is the recorded value of PBM 8-mer E-score equal to or greater than 0.2 for this sequence? ATAATCAC
label 0

====

Tested on: 2Sp-muMax20 (muMax20 with two 2,6-bis(methyl)pyridine Cys staples)
Experiment: PBM 8-mer E-score (E-score (rank enrichment, -0.5 to 0.5)); higher = stronger preferential binding
In all, about 33,000 sequences were measured (“E-score (rank enrichment, -0.5 to 0.5)”: median about -0.0043, highest 2% from about 0.24 on). The sample holds the highest values, similar sequences and a random draw of the others, so the mix is not that of the screen.
Observation type: PBM 8-mer E-score
Format: numeric value only, no unit, no commentary.

Examples with their reported PBM 8-mer E-score follow.
ACCTCGTC    -0.0184
GACGAGCA    0.0874
CACGCGGG    0.187
CGCCCAAA    0.0607
GACGCGGC    -0.08

Now look at this entry.
Please indicate recorded PBM 8-mer E-score of CATGCAGG measured with 2Sp-muMax20 (muMax20 with two 2,6-bis(methyl)pyridine Cys staples).
0.0699

====

Tested on: 2Sp-muMax20 (muMax20 with two 2,6-bis(methyl)pyridine Cys staples)
Experiment: PBM 8-mer E-score (E-score (rank enrichment, -0.5 to 0.5)); higher = stronger preferential binding
The full ranking holds about 33,000 sequences; the median of “E-score (rank enrichment, -0.5 to 0.5)” is about -0.0043, and the highest 2% start at about 0.24. The full list was thinned out, with the highest values kept by preference.
Mark Not met for PBM 8-mer E-score values under 0.1, and Met for everything at or above.

# example entries with known answers
ACTATATG    Met
GCTATATA    Met
CCTGAAGC    Not met
GTGCGTAA    Not met
CGAGTAAG    Not met

Answer whether PBM 8-mer E-score of GGTTTTTA is greater than or equal to 0.1.
Met

Is PBM 8-mer E-score for ACCCACGT at or above 0.1?
Met

Tell me whether PBM 8-mer E-score is at least 0.1 here: GTGCGTTA
Not met
